# system-name: GST-Dm-Relish (Drosophila melanogaster, UniProt Q94527 99-473)
# Sequence: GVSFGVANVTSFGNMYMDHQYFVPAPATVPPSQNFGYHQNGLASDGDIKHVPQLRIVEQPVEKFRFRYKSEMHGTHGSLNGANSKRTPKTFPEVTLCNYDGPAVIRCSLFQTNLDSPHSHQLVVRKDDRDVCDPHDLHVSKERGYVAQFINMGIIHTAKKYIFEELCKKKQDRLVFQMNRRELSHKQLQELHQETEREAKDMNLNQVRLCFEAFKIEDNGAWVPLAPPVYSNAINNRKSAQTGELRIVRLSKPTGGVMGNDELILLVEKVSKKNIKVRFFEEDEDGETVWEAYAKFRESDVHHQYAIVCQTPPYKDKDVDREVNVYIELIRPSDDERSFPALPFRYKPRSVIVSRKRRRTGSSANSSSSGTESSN
# method-description: protein-binding microarray (PBM); PBM: ~300 nM protein, 6 mM HEPES pH 7.8, 80 mM KCl, 0.5 mM EDTA, 0.5 mM EGTA, 6% glycerol, 35 ng/ul poly-dIdC, 1% milk, 1 h, room temperature; Ap Aiptasia and Nv Nematostella (sea anemones) / Co Capsaspora / Aq Amphimedon (sponge) / Dm Drosophila / Hu human; RHD is the Rel homology domain; high values mean tight binding
# applied-conditions: dsDNA, one strand shown
So basically: binding signal at 3 z-score or higher? That is Condition met. Lower than 3 z-score? That is Condition not met.

See these solved cases before continuing.
CCGATTAACATCAAAATTCCAATTGATGTTAATCGGGTCTTGATTCGCTTGACGCTGCTG
Condition not met
CCGATTAACATCAACAAATTCCCTGATGTTAATCGGGTCTTGATTCGCTTGACGCTGCTG
Condition met
CCGATTAACATCATGAATTCCCATGATGTTAATCGGGTCTTGATTCGCTTGACGCTGCTG
Condition met
CCGATTAACATCAAAAATTTACCTGATGTTAATCGGGTCTTGATTCGCTTGACGCTGCTG
Condition met

Incoming: Item CCGATTAACATCAAGAGATTCCCTGATGTTAATCGGGTCTTGATTCGCTTGACGCTGCTG with binding signal of 3 z-score or above?
Outgoing: Condition not met

The values you see were collected from paper PMC5700166.
